Endpoint Name: IC50 (mM)
Report the figure in mM without appending any unit label.

Task: Write IC50 of O[C@H]1[C@H](O)[C@@H](O)[C@H](O)[C@@H](O)[C@H]1O [myo-inositol] ; system used: Con A (Canavalia ensiformis, UniProt P02866)
Result: 10
